Where do these numbers come from? They come from ChEMBL document CHEMBL1153803.

Can you tell me IC50 for the items I'm about to list?
Tested on: Vero
Test: Cytotoxicity against african green monkey Vero cells at after 72 hrs by MTT assay
Type: cell-based, Chlorocebus sabaeus
Settings: Chlorocebus sabaeus, Vero, 72 h; read-out: IC50
One number for each entry, in µg/mL.

The examples below pair each entry with its known result.
1) CC(C)CCCN1C(=N)N([C@@H](Cc2ccccc2)CN2CCCC2CN2C(=N)NC[C@@H]2Cc2ccccc2)C[C@@H]1Cc1ccccc1 (stereo partly drawn)
31
2) CCCCCCCN1CCN([C@@H](Cc2ccccc2)CN2CCCC2CN2CCNC[C@@H]2Cc2ccccc2)C[C@@H]1Cc1ccccc1 (stereo partly drawn)
1.03
3) Oc1ccc(CCN2CCN([C@@H](Cc3ccccc3)CN3CCCC3CN3CCNC[C@@H]3Cc3ccccc3)C[C@@H]2Cc2ccccc2)cc1 (stereo partly drawn)
1.11
4) c1ccc(CCN2CCN([C@@H](Cc3ccccc3)CN3CCCC3CN3CCNC[C@@H]3Cc3ccccc3)C[C@H]2CC2CCCCC2)cc1 (stereo partly drawn)
0.97
5) CC(C)C[C@@H](CN1CCCC1CN1CCNC[C@@H]1Cc1ccccc1)N1CCN(CCc2ccccc2)[C@@H](Cc2ccccc2)C1 (stereo partly drawn)
0.99
6) c1ccc(C[C@H]2CNCCN2CC2CCCN2C[C@H](Cc2ccccc2)N2CCN(CC34CC5CC(CC(C5)C3)C4)[C@@H](Cc3ccccc3)C2)cc1 (stereo partly drawn)
0.97
7) c1ccc(C[C@H]2CNCCN2CC2CCCN2C[C@H](Cc2ccccc2)N2CCN(CC3(c4ccccc4)CC3)[C@@H](Cc3ccccc3)C2)cc1 (stereo partly drawn)
0.94

With those in mind, consider the next molecule.
Just so you know, measured IC50 for c1ccc(C[C@H]2CNCCN2CC2CCCN2C[C@H](Cc2ccccc2)N2CCN(CCC3CC4CCC3C4)[C@@H](Cc3ccccc3)C2)cc1 (stereo partly drawn) came out at 0.87

---

Provide the reported MIC of each item.
System: Mycobacterium tuberculosis
Experiment: Antimicrobial activity against Mycobacterium tuberculosis H37Rv ATCC 27294 by microplate Almar blue assay
Format: functional
Conditions: Mycobacterium tuberculosis, H37Rv ATCC 27294; read-out: MIC
Give bare numbers, in µg/mL.

Below: 2 molecules and their reported MIC.
1. CC(C)CCCN1C(=N)N([C@@H](Cc2ccccc2)CN2CCCC2CN2C(=N)NC[C@@H]2Cc2ccccc2)C[C@@H]1Cc1ccccc1 (stereo partly drawn)
7.8
2. N=C1NC[C@H](Cc2ccccc2)N1CC1CCCN1C[C@H](Cc1ccccc1)N1C[C@H](Cc2ccccc2)N(CCC2CC3CCC2C3)C1=N (stereo partly drawn)
7.8

Turning now to a further record.
Case CCC(C)CN1CCN([C@@H](Cc2ccccc2)CN2CCCC2CN2CCNC[C@@H]2Cc2ccccc2)C[C@@H]1Cc1ccccc1 (stereo partly drawn) , Mycobacterium tuberculosis, MIC recorded as 3.9

---

Tested on: Mycobacterium tuberculosis
Test: Antimicrobial activity against Mycobacterium tuberculosis H37Rv ATCC 27294 by microplate Almar blue assay
Format: functional
Conditions: Mycobacterium tuberculosis, H37Rv ATCC 27294; read-out: MIC
Binary label based on MIC with cut-off 4 µg/mL: below gives Condition met, not below gives Condition not met.

Known results for compounds:
1. OCC(CN1CCN([C@@H](Cc2ccccc2)CN2CCCC2CN2CCNC[C@@H]2Cc2ccccc2)C[C@@H]1Cc1ccccc1)c1ccccc1 (some centres not stated)
Condition not met
2. c1ccc(C[C@H]2CNCCN2CC2CCCN2C[C@H](Cc2ccccc2)N2CCN(CC34CC5CC(CC(C5)C3)C4)[C@@H](Cc3ccccc3)C2)cc1 (some centres not stated)
Condition met

q: I'd appreciate it if you could check whether CCC(C)CN1C(=N)N([C@@H](Cc2ccccc2)CN2CCCC2CN2C(=N)NC[C@@H]2Cc2ccccc2)C[C@@H]1Cc1ccccc1 (some centres not stated) has MIC smaller than 4 µg/mL.
a: Condition not met

---

Tested on: Mycobacterium tuberculosis
Assay: Antimicrobial activity against Mycobacterium tuberculosis H37Rv ATCC 27294 by microplate Almar blue assay
Format: functional
Settings: Mycobacterium tuberculosis, H37Rv ATCC 27294; read-out: MIC
recordedEndpoint: MIC (µg/mL)
Numbers only, in µg/mL.

1. CC(C)(C)C1CCC(CN2CCN([C@@H](Cc3ccccc3)CN3CCCC3CN3CCNC[C@@H]3Cc3ccccc3)C[C@@H]2Cc2ccccc2)CC1 (stereo partly drawn)
2

For each of the compounds below, note its MIC.
1. S=C1NC[C@H](Cc2ccccc2)N1CC1CCCN1C[C@H](Cc1ccccc1)N1C[C@H](Cc2ccccc2)N(CC2CCCCC2)C1=S (stereo partly drawn)
2. N=C1NC[C@H](Cc2ccccc2)N1CC1CCCN1C[C@H](Cc1ccccc1)N1C[C@H](Cc2ccccc2)N(CC2CCCCCC2)C1=N (stereo partly drawn)
3. N=C1NC[C@H](Cc2ccccc2)N1CC1CCCN1C[C@H](Cc1ccccc1)N1C[C@H](Cc2ccccc2)N(CCc2ccc(Cl)c(Cl)c2)C1=N (stereo partly drawn)
4. Brc1cccc(CCCN2CCN([C@@H](Cc3ccccc3)CN3CCCC3CN3CCNC[C@@H]3Cc3ccccc3)C[C@@H]2Cc2ccccc2)c1 (stereo partly drawn)
5. CC(C)(C)C1CCC(CN2C(=N)N([C@@H](Cc3ccccc3)CN3CCCC3CN3C(=N)NC[C@@H]3Cc3ccccc3)C[C@@H]2Cc2ccccc2)CC1 (stereo partly drawn)
6. NC[C@H](Cc1ccccc1)NC[C@@H]1CCCN1C[C@H](Cc1ccccc1)NC[C@H](Cc1ccccc1)NCC12CC3CC(CC(C3)C1)C2

a:
1: 3.9; 2: 3.9; 3: 3.9; 4: 3.9; 5: 7.8; 6: 6.25

For c1ccc(C[C@H]2CNCCN2CC2CCCN2C[C@H](Cc2ccccc2)N2CCN(CCC3CCCCC3)[C@@H](Cc3ccccc3)C2)cc1 (stereo partly drawn) the compound record lists MIC as 3.9

---

Tested on: Vero
Assay: Cytotoxicity against african green monkey Vero cells at after 72 hrs by MTT assay
Format: cell-based, Chlorocebus sabaeus
Conditions: Chlorocebus sabaeus, Vero, 72 h; read-out: IC50
So basically, if IC50 comes in under 0.9 µg/mL it's condition met, and if it's 0.9 µg/mL or more it's condition not met.

# count of solved cases: 3
1. c1ccc(C[C@H]2CNCCN2CC2CCCN2C[C@H](Cc2ccccc2)N2CCN(CCCC3CCCCC3)[C@@H](Cc3ccccc3)C2)cc1 (some centres not stated)
condition not met
2. N=C1NC[C@H](Cc2ccccc2)N1CC1CCCN1C[C@H](Cc1ccccc1)N1C[C@H](Cc2ccccc2)N(CC2CCCC2)C1=N (some centres not stated)
condition not met
3. COc1cccc(CCN2CCN([C@@H](Cc3ccccc3)CN3CCCC3CN3CCNC[C@@H]3Cc3ccccc3)C[C@@H]2Cc2ccccc2)c1 (some centres not stated)
condition met

q: is_below(IC50, 0.9 µg/mL) for CC(C)[C@@H](CN1CCCC1CN1CCNC[C@@H]1Cc1ccccc1)N1CCN(CCc2ccccc2)[C@@H](Cc2ccccc2)C1 (some centres not stated) ?
a: condition not met

q: Please state whether IC50 is below 0.9 µg/mL for c1ccc(C[C@H]2CNCCN2CC2CCCN2C[C@H](Cc2ccccc2)N2CCN(CCCC3CCCC3)[C@@H](Cc3ccccc3)C2)cc1 (some centres not stated)
a: condition met

---

For each entry below, report its IC50 value.
System: Vero
Experiment: Cytotoxicity against african green monkey Vero cells at after 72 hrs by MTT assay
Format: cell-based, Chlorocebus sabaeus
Details: Chlorocebus sabaeus, Vero, 72 h; read-out: IC50
Express the reported value numerically, then name its unit.

Known results for compounds:
1. CC1CCC(CN2CCN([C@@H](Cc3ccccc3)CN3CCCC3CN3CCNC[C@@H]3Cc3ccccc3)C[C@@H]2Cc2ccccc2)CC1 (stereo partly drawn)
1.39 µg/mL
2. c1ccc(C[C@H]2CNCCN2CC2CCCN2C[C@H](Cc2ccccc2)N2CCN(CCc3ccc(-c4ccccc4)cc3)[C@@H](Cc3ccccc3)C2)cc1 (stereo partly drawn)
1 µg/mL

Alright, here's another compound for you.
Item: NC[C@H](Cc1ccccc1)NC[C@@H]1CCCN1C[C@H](Cc1ccccc1)NC[C@H](Cc1ccccc1)NCCC12CC3CC(CC(C3)C1)C2 | IC50: 1.1 µg/mL

---

Test system: Mycobacterium tuberculosis
Test: Antimicrobial activity against Mycobacterium tuberculosis H37Rv ATCC 27294 by microplate Almar blue assay
Type: functional
Details: Mycobacterium tuberculosis, H37Rv ATCC 27294; read-out: MIC
Can you tell me MIC for the items I'm about to list?
Answers are plain numbers, in µg/mL.

See these solved cases before continuing.
1. S=C1NC[C@H](Cc2ccccc2)N1C[C@@H]1CCCN1C[C@H](Cc1ccccc1)N1C[C@H](Cc2ccccc2)N(CC23CC4CC(CC(C4)C2)C3)C1=S
6.25
2. c1ccc(C[C@H]2CNCCN2CC2CCCN2C[C@H](Cc2ccccc2)N2CCN(CCCC3CCCCC3)[C@@H](Cc3ccccc3)C2)cc1 (some centres undefined)
2
3. c1ccc(C[C@H]2CNCCN2CC2CCCN2C[C@H](Cc2ccccc2)N2CCN(CCCCC3CCCCC3)[C@@H](Cc3ccccc3)C2)cc1 (some centres undefined)
2

Now turn to the next compound.
What the record says about Cc1ccc(CN2CCN([C@@H](Cc3ccccc3)CN3CCCC3CN3CCNC[C@@H]3Cc3ccccc3)C[C@@H]2Cc2ccccc2)cc1 (some centres undefined) : MIC is 3.9
